I'd appreciate it if you could supply growth values for the items below.
Test system: COLO 205 colon
Protocol Notes: NCI-60 one-dose screen, 48 h (100 = growth as untreated, 0 = no growth, -100 = all killed)
Measurement Parameters: 10 µM
Method: Cells are grown in 96 well plates and exposed to the test compound for 48 hours. Compounds are tested at a single concentration, which is 10^-5 M for most compounds. The reported endpoint is percent growth (GI% or GIPRCNT), where numbers from 0 - 100% represent growth inhibition, and numbers from -100% - 0 represent cell death. For example, a value of 40 represents 60% growth inhibition. A value of 0 means no net growth occurred over the course of the experiment. […]
About 83,000 compounds went through this panel and 20% of them were active in at least one assay; those are over-represented in the sample as a whole.
Give the number; % is assumed, so skip it.

Query: What measured growth is associated with O=C1CC(SC(=S)C2CCCC2=O)C(=O)N1 (stereo unspecified) on COLO 205 colon?
Response: 116

Query: What measured growth is associated with COc1cc2cc(Oc3ccc(NC(=O)Nc4ccc(Cl)c(Cl)c4)cc3)c(C)nc2cc1OC on COLO 205 colon?
Response: 4.03

Query: What measured growth is associated with COc1cc2cc(Oc3ccc(NC(=O)c4ccccc4)cc3)c(C)nc2cc1OC on COLO 205 colon?
Response: 109

Query: What measured growth is associated with Nc1c(Br)cc(Br)c2c1[nH]c(=O)c1ccccc12 on COLO 205 colon?
Response: 86.5

Query: What measured growth is associated with CCNc1nc(C(F)(F)F)nc2c1sc(=S)n2-c1ccccc1 on COLO 205 colon?
Response: 106

Query: What measured growth is associated with CN(C)CCCOc1ccc(OCCCN(C)C)c2c1C(=O)c1ccccc1C2=O on COLO 205 colon?
Response: -57.9
